Reported EA activation relative to control by item:
System: Raji
Assay: Inhibition of TPA-induced EBV-early antigen activation in human Raji cells assessed as EA activation at 100 molar ratio after 48 hrs relative to control
Type: cell-based
Conditions: human gammaherpesvirus 4
measurementLabel: EA activation relative to control (%)

mol=CO[C@H]1CC[C@@]2(C)[C@@H](CC[C@@]3(C)CC4=CC[C@H]5C(C)(C)[C@H](OC(=O)CCC(=O)Oc6ccc(-c7coc8cc(O)cc(O)c8c7=O)cc6)CC[C@]5(C)[C@H]4CC[C@@H]32)C1(C)C systemtested=Raji measurementlabel="EA activation relative to control" testvalue=79.6
mol=CO[C@H]1CC[C@@]2(C)[C@@H](CC[C@@]3(C)CC4=CC[C@H]5C(C)(C)[C@H](OC(=O)CCC(=O)Oc6ccc(-c7coc8cc(O)ccc8c7=O)cc6)CC[C@]5(C)[C@H]4CC[C@@H]32)C1(C)C systemtested=Raji measurementlabel="EA activation relative to control" testvalue=82.6
mol=CO[C@H]1CC[C@@]2(C)[C@@H](CC[C@@]3(C)CC4=CC[C@H]5C(C)(C)[C@H](OC(=O)CCC(=O)Oc6ccc([C@@H]7CC(=O)c8c(O)cc(O)cc8O7)cc6)CC[C@]5(C)[C@H]4CC[C@@H]32)C1(C)C systemtested=Raji measurementlabel="EA activation relative to control" testvalue=80
